Data provenance: paper PMC5540273

system: BIKE; construct: gene BMP2K; conditions: concentration: 1 μM, replicates: in singlicate; n = 1;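 also: KINOMEscan kinase panel screen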
So basically, if %Inh comes in under 1% it's YES, and if it's 1% or more it's NO.

Inquiry: Consider CC(C)(C)c1ccc(-n2cnc3c(N)ncnc32)cc1 [SKF-97263] . Does its %Inh lie strictly below 1%?
Reply text: NO

Inquiry: Consider "Clc1cc(Nc2ncnc3cc[nH]c23)ccc1OCc1ccccn1" . Does its %Inh lie strictly below 1%?
Reply text: YES

Inquiry: Consider Cl.c1ccc(Cn2ccc3cc(Nc4ncnc5ccccc45)ccc32)cc1 [GW275568] . Does its %Inh lie strictly below 1%?
Reply text: NO

Inquiry: Consider CCn1c(-c2ccncc2)nc2cnccc21 [SB-735216] . Does its %Inh lie strictly below 1%?
Reply text: NO

Inquiry: Consider "COC(=O)c1c(-c2ccccc2)c2cc(Cl)ccc2c(=O)n1Cc1ccc(S(C)(=O)=O)cc1" . Does its %Inh lie strictly below 1%?
Reply text: YES

Inquiry: Consider Cc1ccc(O)cc1Nc1cc(C(F)(F)F)nc2ccc(-c3ccncc3)cc12 [GW630823] . Does its %Inh lie strictly below 1%?
Reply text: NO

Inquiry: Consider Nc1nc(-c2ccccn2)c(-c2ccnc3ccccc23)s1 [GW548057] . Does its %Inh lie strictly below 1%?
Reply text: NO

Inquiry: Consider CSc1ccc(NC2=C(c3ccccc3Cl)C(=O)NC2=O)cc1 [SB-342411] . Does its %Inh lie strictly below 1%?
Reply text: NO

Inquiry: Consider COc1ccc(-c2oc3ncnc(N)c3c2-c2ccc(OC)cc2)cc1 [SB-589132] . Does its %Inh lie strictly below 1%?
Reply text: YES
